Every entry's value here was drawn from ChEMBL document CHEMBL5247584.

Target: Acetylcholinesterase (Homo sapiens, UniProt P22303)
Sequence (P22303 whole entry): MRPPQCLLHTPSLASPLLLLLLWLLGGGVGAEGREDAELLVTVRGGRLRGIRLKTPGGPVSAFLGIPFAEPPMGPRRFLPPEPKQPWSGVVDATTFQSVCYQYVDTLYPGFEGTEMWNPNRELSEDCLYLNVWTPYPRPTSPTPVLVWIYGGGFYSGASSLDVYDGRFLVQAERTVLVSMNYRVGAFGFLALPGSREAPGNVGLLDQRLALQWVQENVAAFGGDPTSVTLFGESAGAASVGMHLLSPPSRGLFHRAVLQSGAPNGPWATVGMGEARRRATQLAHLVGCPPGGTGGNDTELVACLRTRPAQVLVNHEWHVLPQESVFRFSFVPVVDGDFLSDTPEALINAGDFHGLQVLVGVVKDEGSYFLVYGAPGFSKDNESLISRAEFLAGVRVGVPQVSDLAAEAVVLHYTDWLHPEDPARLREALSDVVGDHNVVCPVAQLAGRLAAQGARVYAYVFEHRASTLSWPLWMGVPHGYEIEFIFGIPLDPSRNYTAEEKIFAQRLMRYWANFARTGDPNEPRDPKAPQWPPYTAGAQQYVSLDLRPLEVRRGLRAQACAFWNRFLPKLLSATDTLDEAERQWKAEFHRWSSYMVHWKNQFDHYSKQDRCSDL
Kindly state log10(IC50) for each of the entries shown.
Note the log scale: values are log10 of IC50 expressed in µM.

Examples with their reported log10(IC50) follow.
>>> reported("Cc1ccc(-c2noc(-c3cccc(OCC4CCN(Cc5ccc(F)cc5)CC4)c3)n2)cn1")
0.48
>>> reported("Cc1ccc(-c2noc(-c3cccc(OCC4CCN(Cc5ccccc5F)CC4)c3)n2)cn1")
-0.54
>>> reported("Cc1ccc(-c2noc(-c3cccc(OCC4CCN(Cc5cccc(F)c5)CC4)c3)n2)cn1")
-0.42
>>> reported("Cc1ccc(-c2noc(-c3cccc(OCC4CCN(Cc5ccccc5)CC4)c3)n2)cn1")
-0.13

# input Please give the measured log10(IC50) for this compound: Cc1ccc(-c2noc(-c3cccc(OCC4CCN(Cc5ccccc5Cl)CC4)c3)n2)cn1
# output -0.24

* * *

Molecular target: UniProtKB O42275
pIC50: −log10 of the molar value.
Response key: TRUE means pIC50 >= 5; FALSE means pIC50 < 5.

Worked examples follow.
>>> class_name("Cc1ccc(-c2noc(-c3cccc(OCC4CCN(Cc5ccccc5)CC4)c3)n2)cn1")
"TRUE"
>>> class_name("Cc1ccc(-c2noc(-c3cccc(OCC4CCCN(C(=O)c5ccccc5)C4)c3)n2)cn1 (stereo not given)")
"FALSE"
>>> class_name("Cc1ccc(-c2noc(-c3cccc(OCC4CCN(Cc5ccco5)CC4)c3)n2)cn1")
"TRUE"
>>> class_name("COc1ccc(CN2CCC(COc3cccc(-c4nc(-c5ccc(C)nc5)no4)c3)CC2)cc1")
"FALSE"
>>> class_name("Cc1ccc(-c2noc(-c3cccc(OCC4CCN(Cc5ccc(C)c(C)c5)CC4)c3)n2)cn1")
"TRUE"

Now for a further compound.
# input Hello, I need to know if Cc1ccc(-c2noc(-c3cccc(OCC4CCN(Cc5cccc(F)c5)CC4)c3)n2)cn1 has measured pIC50 not below 5. Thanks!
# output TRUE

* * *

Target: Cholinesterase (Equus caballus)
Test: Inhibition of equine serum BuChE using ATC and BTC iodide as substrate preincubated for 5 mins followed by substrate addition and measured after 2 mins by DTNB reagent based assay
measured endpoint: pIC50
One number for each entry, as −log10 of the molar value.

Examples with their reported pIC50 follow.
>>> reported("Cc1ccc(-c2noc(-c3cccc(OCC4CCCN(C(=O)c5ccc(F)cc5)C4)c3)n2)cn1 (stereo not given)")
5.24
>>> reported("Cc1ccc(-c2noc(-c3cccc(OCC4CCN(Cc5ccccc5)CC4)c3)n2)cn1")
5.30
>>> reported("Cc1ccc(-c2noc(-c3cccc(OCC4CCN(Cc5cccnc5)CC4)c3)n2)cn1")
5.41
>>> reported("Cc1ccc(-c2noc(-c3cccc(OCC4CCN(Cc5ccc(F)cc5)CC4)c3)n2)cn1")
5.87
>>> reported("Cc1ccc(-c2noc(-c3cccc(OCC4CCCN(Cc5ccc(F)cc5)C4)c3)n2)cn1 (stereo not given)")
5.37

Give one value of pIC50 per listed compound.
1. Cc1ccc(-c2noc(-c3cccc(OCC4CCCN(Cc5ccccc5)C4)c3)n2)cn1 (stereo not given)
2. Cc1ccc(-c2noc(-c3cccc(OCC4CCCN(C(=O)c5ccccc5)C4)c3)n2)cn1 (stereo not given)
3. Cc1ccc(-c2noc(-c3cccc(OCC4CCCN(Cc5ccccc5F)C4)c3)n2)cn1 (stereo not given)
4. Cc1ccc(-c2noc(-c3cccc(OCC4CCN(Cc5ccccc5F)CC4)c3)n2)cn1
5. Cc1ccc(-c2noc(-c3cccc(OCC4CCN(Cc5cccc(F)c5)CC4)c3)n2)cn1

# output
5.56
4.86
4.75
4.81
5.09

* * *

Molecular target: Cholinesterase (Equus caballus, UniProt P81908)
Sequence (P81908 whole entry): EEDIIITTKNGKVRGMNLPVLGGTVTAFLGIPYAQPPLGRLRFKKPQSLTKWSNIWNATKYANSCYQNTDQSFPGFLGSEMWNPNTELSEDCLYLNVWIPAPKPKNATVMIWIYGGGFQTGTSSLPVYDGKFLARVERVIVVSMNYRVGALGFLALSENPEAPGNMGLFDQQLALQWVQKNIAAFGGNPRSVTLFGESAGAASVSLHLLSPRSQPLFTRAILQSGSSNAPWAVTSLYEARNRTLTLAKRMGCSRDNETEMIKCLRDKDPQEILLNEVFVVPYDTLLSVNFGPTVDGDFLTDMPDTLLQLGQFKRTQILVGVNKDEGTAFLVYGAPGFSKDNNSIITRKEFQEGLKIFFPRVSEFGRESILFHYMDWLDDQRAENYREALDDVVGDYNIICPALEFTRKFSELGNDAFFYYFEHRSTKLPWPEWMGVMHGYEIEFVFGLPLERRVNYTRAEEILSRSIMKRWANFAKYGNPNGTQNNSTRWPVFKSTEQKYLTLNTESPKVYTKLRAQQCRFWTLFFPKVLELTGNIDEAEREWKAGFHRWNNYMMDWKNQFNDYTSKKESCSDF
Experiment: Inhibition of equine serum BuChE using ATC and BTC iodide as substrate preincubated for 5 mins followed by substrate addition and measured after 2 mins by DTNB reagent based assay
measured endpoint: IC50

Examples with their reported IC50 follow.
>>> reported("Cc1ccc(CN2CCC(COc3cccc(-c4nc(-c5ccc(C)nc5)no4)c3)CC2)cc1")
"6.34 µM"
>>> reported("Cc1ccc(-c2noc(-c3cccc(OCC4CCN(C(=O)c5ccc(F)cc5)CC4)c3)n2)cn1")
"> 100 µM"

Give one value of IC50 per listed compound.
1. Cc1ccc(-c2noc(-c3cccc(OCC4CCN(Cc5ccccc5Cl)CC4)c3)n2)cn1
2. Cc1ccc(-c2noc(-c3cccc(OCC4CCN(Cc5ccc(C(F)(F)F)cc5)CC4)c3)n2)cn1
3. Cc1ccc(-c2noc(-c3cccc(OCC4CCN(Cc5ccncc5)CC4)c3)n2)cn1
4. Cc1ccc(-c2noc(-c3cccc(OCC4CCN(Cc5ccc(F)c(F)c5)CC4)c3)n2)cn1
5. Cc1ccc(-c2noc(-c3cccc(OCC4CCN(Cc5ccc(Br)o5)CC4)c3)n2)cn1
6. Cc1ccc(-c2noc(-c3cccc(OCC4CCN(Cc5ccc(Cl)cc5)CC4)c3)n2)cn1

# output
["> 100 µM", "> 100 µM", "> 100 µM", "1.66 µM", "> 100 µM", "> 100 µM"]

# input Please give the measured IC50 for this compound: Cc1ccc(-c2noc(-c3cccc(OCC4CCN(Cc5ccccn5)CC4)c3)n2)cn1
# output 5.03 µM

* * *

Kindly state pIC50 for each of the entries shown.
Biological target: Acetylcholinesterase (Electrophorus electricus, UniProt O42275)
Sequence (O42275 whole entry): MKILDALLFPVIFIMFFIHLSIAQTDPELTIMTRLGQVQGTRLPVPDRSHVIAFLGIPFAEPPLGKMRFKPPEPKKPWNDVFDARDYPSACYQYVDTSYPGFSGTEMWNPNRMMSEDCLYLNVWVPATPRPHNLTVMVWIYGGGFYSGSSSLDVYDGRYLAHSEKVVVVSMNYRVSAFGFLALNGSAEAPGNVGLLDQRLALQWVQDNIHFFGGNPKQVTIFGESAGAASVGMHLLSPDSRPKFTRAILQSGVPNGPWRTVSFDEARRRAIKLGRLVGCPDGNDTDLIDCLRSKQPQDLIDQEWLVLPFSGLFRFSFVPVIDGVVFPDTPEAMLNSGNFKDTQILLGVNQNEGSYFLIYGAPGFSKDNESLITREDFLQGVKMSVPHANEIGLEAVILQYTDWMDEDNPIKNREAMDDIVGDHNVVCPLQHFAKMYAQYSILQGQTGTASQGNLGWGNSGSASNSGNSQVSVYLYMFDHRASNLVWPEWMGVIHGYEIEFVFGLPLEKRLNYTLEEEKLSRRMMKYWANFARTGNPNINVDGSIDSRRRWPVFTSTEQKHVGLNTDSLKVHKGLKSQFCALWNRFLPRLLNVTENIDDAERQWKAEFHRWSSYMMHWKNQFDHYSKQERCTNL
Numbers only, as −log10 of the molar value.

Examples with their reported pIC50 follow.
>>> reported("Cc1ccc(-c2noc(-c3cccc(OCC4CCN(Cc5ccc(Br)o5)CC4)c3)n2)cn1")
5.50
>>> reported("Cc1ccc(-c2noc(-c3cccc(OCC4CCN(C(=O)c5ccccc5)CC4)c3)n2)cn1")
4.23
>>> reported("Cc1ccc(-c2noc(-c3cccc(OCC4CCN(Cc5ccc(Cl)o5)CC4)c3)n2)cn1")
5.70
>>> reported("Cc1ccc(-c2noc(-c3cccc(OCC4CCN(Cc5cccc(Cl)c5)CC4)c3)n2)cn1")
5.64
>>> reported("Cc1ccc(-c2noc(-c3cccc(OCC4CCCN(Cc5ccccc5)C4)c3)n2)cn1 (centres undefined)")
5.19

--- query ---
# input Please give the measured pIC50 for this molecule: Cc1ccc(-c2noc(-c3cccc(OCC4CCN(Cc5ccccc5F)CC4)c3)n2)cn1
# output 7.00

* * *

Please consider the recorded pIC50 for Acetylcholinesterase (Electrophorus electricus) in what follows.
Answers are plain numbers, as −log10 of the molar value.

Examples with their reported pIC50 follow.
>>> reported("Cc1ccc(-c2noc(-c3cccc(OCC4CCN(Cc5ccc(C#N)cc5)CC4)c3)n2)cn1")
4.15
>>> reported("Cc1ccc(-c2noc(-c3cccc(OCC4CCCN(C(=O)c5ccc(F)cc5)C4)c3)n2)cn1 (stereo not given)")
5.36
>>> reported("Cc1ccc(-c2noc(-c3cccc(OCC4CCN(Cc5ccccn5)CC4)c3)n2)cn1")
5.72

--- query ---
# input Please give the measured pIC50 for this molecule: Cc1ccc(-c2noc(-c3cccc(OCC4CCN(Cc5ccc(F)cc5)CC4)c3)n2)cn1
# output 6.25

* * *

Please consider the recorded log10(IC50) for UniProtKB O42275 in what follows.
Note the log scale: values are log10 of IC50 expressed in µM.

Examples with their reported log10(IC50) follow.
>>> reported("Cc1ccc(-c2noc(-c3cccc(OCC4CCN(Cc5ccc(F)c(F)c5)CC4)c3)n2)cn1")
1.14
>>> reported("Cc1ccc(-c2noc(-c3cccc(OCC4CCN(Cc5ccccc5Cl)CC4)c3)n2)cn1")
-0.26
>>> reported("Cc1ccc(-c2noc(-c3cccc(OCC4CCN(Cc5ccncc5)CC4)c3)n2)cn1")
1.23
>>> reported("Cc1ccc(-c2noc(-c3cccc(OCC4CCN(Cc5cccnc5)CC4)c3)n2)cn1")
0.11
>>> reported("Cc1ccc(CN2CCCC(COc3cccc(-c4nc(-c5ccc(C)nc5)no4)c3)C2)cc1 (centres undefined)")
0.73

# input Identify the measured log10(IC50) of Cc1ccc(-c2noc(-c3cccc(OCC4CCCN(Cc5ccccc5F)C4)c3)n2)cn1 (centres undefined) for UniProtKB O42275.
# output 0.91

* * *

Biological target: Acetylcholinesterase (Electrophorus electricus)
pIC50: −log10 of the molar value.
measured endpoint: pIC50

Examples with their reported pIC50 follow.
>>> reported("Cc1ccc(-c2noc(-c3cccc(OCC4CCN(Cc5ccc(Br)cc5)CC4)c3)n2)cn1")
"< 4.00"
>>> reported("Cc1ccc(-c2noc(-c3cccc(OCC4CCCN(Cc5ccc(F)cc5)C4)c3)n2)cn1 (stereo not drawn)")
"< 4.00"

--- query ---
# input Please give the measured pIC50 for this compound: Cc1ccc(-c2noc(-c3cccc(OCC4CCN(Cc5ccc(C(C)(C)C)cc5)CC4)c3)n2)cn1
# output < 4.00

* * *

Kindly state IC50 for each of the entries shown.
Biological target: Acetylcholinesterase (Electrophorus electricus)

Examples with their reported IC50 follow.
>>> reported("Cc1ccc(-c2noc(-c3cccc(OCC4CCN(Cc5ccc(Cl)cc5)CC4)c3)n2)cn1")
"> 100 µM"
>>> reported("Cc1ccc(-c2noc(-c3cccc(OCC4CCN(C(=O)c5ccc(F)cc5)CC4)c3)n2)cn1")
"> 100 µM"

# input Please give the measured IC50 for this molecule: Cc1ccc(-c2noc(-c3cccc(OCC4CCN(Cc5ccc(C(F)(F)F)cc5)CC4)c3)n2)cn1
# output > 100 µM
